Quick reference: aptazyme ON/OFF ratio of the listed items.
B1: Pistol ribozyme (parent)
chain: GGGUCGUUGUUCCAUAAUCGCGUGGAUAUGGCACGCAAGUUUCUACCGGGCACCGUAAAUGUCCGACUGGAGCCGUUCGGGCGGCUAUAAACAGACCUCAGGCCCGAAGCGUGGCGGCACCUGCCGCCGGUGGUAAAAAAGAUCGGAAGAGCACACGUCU

# Variants of: B1
# RUN_DESCRIPTION: aptazyme ON/OFF ratio, guanine; higher = stronger switching; co-transcriptional cleavage with and without guanine

>>> print(df.to_string())
                      variant_name  experimental_value
0       U7A U8G G9U U10A U11A C13G                1.15
1      U7A U8A U10G U11C C12G C13G                1.11
2           U7A G9A U10A U11C C12A                1.16
3            U7A U8G G9C U10A C12A                 1.4
4       U7C U8C G9U U11C C12G C13A                1.12
5  U7A U8C G9C U10C U11C C12U C13A                1.02
6      U7C G9C U10G U11C C12G C13G                1.13
7           U7A U8A U11A C12A C13G                1.28
8          G9U U10A U11A C12A C13G                1.29
9       U7G U8G G9C U10A U11C C13G                1.05

Hello, please tell me recorded aptazyme ON/OFF ratio for this one: U8A G9C U10A C12A C13A 1.22

Hello, please tell me recorded aptazyme ON/OFF ratio for this one: U7C U8C G9C U10C U11A C13U 1.05

Hello, please tell me recorded aptazyme ON/OFF ratio for this one: U8G G9A U10A U11A C13U 1.17

Hello, please tell me recorded aptazyme ON/OFF ratio for this one: U7C G9U U10C C12U C13G 1.05

Hello, please tell me recorded aptazyme ON/OFF ratio for this one: U7A G9C U11G C12G C13A 1.16

Hello, please tell me recorded aptazyme ON/OFF ratio for this one: U8C G9U U10G U11G C12A C13G 1.07

The origin of these recorded values is the RNAGym collection of RNA variant scans (doi:10.1021/acssynbio.7b00057).
